# EXPERIMENTAL TARGET: T1, RRM1 analog K100A (Homo sapiens, UniProt Q8IUH3 23-202, K100A;F124A;Y165A)
# T1 sequence: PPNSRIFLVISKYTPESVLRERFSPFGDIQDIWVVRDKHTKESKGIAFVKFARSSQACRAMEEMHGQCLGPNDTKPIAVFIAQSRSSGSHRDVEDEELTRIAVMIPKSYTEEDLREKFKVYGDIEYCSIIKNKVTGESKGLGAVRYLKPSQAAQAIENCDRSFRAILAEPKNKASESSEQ
# ASSAY: fluorescence polarization
READOUT NAME: pKd
Answer as the number alone; pKd is minus log10 of concentration in mol/L.

query: Look up and state reported pKd for GGACGG (ssRNA) [GGACGG RNA]
result: 5.34
